Reference source for all entries: patent US12162888B2

Target: USP28 (His-tagged USP28-FL-mammalian) (Homo sapiens, UniProt Q96RU2)
Construct: Expression of USP28 (1-1077)-TEV-6*His (pTT5 vector) was carried out in Expi293f cells; made in house; host or cells: Expi293F cells (pTT5 vector)
Sequence (Q96RU2 whole entry): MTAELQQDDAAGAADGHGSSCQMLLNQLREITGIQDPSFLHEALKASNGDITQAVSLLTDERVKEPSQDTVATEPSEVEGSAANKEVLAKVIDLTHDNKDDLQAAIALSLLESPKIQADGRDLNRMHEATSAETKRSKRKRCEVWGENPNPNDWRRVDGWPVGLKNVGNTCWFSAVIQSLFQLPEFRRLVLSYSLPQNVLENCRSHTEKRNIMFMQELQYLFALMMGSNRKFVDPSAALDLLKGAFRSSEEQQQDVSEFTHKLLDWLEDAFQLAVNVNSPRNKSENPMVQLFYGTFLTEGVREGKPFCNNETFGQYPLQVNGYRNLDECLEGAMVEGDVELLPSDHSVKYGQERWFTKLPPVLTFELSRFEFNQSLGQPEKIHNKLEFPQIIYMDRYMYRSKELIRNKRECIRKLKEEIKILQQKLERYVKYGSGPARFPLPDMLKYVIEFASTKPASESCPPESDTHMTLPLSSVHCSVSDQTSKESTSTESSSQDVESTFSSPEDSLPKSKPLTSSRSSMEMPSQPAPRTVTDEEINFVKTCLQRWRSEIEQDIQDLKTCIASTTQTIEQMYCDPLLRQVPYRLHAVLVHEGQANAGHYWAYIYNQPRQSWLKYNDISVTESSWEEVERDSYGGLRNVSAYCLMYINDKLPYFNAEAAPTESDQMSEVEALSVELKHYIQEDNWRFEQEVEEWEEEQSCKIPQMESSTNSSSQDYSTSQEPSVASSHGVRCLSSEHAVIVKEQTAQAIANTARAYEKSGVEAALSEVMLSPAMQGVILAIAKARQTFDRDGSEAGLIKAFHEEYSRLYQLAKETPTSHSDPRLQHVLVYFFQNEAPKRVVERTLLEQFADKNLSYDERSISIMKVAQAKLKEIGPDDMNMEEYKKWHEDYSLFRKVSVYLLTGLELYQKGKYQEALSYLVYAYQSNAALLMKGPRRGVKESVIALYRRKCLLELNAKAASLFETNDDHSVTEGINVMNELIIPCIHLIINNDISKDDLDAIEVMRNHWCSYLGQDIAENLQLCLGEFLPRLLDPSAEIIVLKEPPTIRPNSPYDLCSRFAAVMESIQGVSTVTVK
Assay: Ubiquitin-Rhodamine 110 Assay for USP28 Activity, Example A-1(a)
Assay type: biochemical
Conditions: Ubiquitin-Rhodamine 110 assay, IC50 ranges, read-out: USP28 A-1(a) IC50
property.measured: IC50

[ask] Form: Entry = N#Cc1c(N2CC3CCC(C2)N3)cc(F)c2c1OC[C@H](NC(=O)c1cnc3c(c1)[C@@H]1CC1CN3)C2 (stereo partly shown) | System = USP28 (His-tagged USP28-FL-mammalian) (Homo sapiens, UniProt Q96RU2) | IC50 = ____
[reply] 200 to 2000 nM
